- testedTarget: BRM (Homo sapiens, UniProt P51531)
- Sequence (P51531 whole entry): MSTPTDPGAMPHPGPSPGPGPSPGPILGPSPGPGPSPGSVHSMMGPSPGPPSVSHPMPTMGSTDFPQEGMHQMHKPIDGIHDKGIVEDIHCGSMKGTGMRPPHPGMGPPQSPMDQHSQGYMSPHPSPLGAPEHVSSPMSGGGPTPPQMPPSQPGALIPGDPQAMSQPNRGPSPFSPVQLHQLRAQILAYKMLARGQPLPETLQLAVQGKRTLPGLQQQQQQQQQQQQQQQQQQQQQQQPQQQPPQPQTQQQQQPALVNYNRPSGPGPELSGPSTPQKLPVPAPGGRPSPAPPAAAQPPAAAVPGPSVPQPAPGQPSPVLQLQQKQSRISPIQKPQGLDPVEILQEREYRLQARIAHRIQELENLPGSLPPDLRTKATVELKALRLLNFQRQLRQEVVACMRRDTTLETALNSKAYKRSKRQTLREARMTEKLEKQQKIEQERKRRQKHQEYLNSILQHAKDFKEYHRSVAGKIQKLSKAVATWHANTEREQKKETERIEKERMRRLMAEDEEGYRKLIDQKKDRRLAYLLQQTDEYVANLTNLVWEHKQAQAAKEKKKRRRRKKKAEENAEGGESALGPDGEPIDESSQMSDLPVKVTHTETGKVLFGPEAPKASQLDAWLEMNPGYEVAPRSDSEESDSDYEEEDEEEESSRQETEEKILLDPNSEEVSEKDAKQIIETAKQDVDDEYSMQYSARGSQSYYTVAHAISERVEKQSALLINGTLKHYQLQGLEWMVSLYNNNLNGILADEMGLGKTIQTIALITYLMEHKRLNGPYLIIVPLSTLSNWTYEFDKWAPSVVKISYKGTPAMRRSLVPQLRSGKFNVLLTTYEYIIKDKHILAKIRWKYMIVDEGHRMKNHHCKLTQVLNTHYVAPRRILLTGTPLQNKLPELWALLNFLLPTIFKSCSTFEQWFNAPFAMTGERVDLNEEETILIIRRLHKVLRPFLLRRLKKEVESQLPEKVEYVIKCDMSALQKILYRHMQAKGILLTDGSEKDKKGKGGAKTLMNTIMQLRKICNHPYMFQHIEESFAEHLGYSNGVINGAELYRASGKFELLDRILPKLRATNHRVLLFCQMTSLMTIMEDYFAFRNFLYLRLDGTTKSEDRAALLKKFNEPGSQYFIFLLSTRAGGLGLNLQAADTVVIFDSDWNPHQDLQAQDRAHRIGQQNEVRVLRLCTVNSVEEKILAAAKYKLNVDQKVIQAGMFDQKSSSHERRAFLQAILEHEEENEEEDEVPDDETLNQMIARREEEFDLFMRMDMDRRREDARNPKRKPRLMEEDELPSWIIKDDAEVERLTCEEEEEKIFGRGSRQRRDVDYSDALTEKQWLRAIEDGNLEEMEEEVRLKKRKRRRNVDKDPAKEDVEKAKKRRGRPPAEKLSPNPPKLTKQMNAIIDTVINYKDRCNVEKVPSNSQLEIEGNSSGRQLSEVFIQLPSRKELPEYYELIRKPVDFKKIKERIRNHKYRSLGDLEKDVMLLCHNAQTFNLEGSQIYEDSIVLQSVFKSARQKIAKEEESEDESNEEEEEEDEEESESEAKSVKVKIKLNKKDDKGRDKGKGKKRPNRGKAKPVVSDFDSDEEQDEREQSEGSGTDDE
- methodSummary: Immunofluorescence assay for BRM degradation in SW1573 cells
- Assay type: cell-based
- Set-up: treated overnight at 4° C. with either BRM primary antibody (Cell signaling Cat #11966) or BRG primary antibody; endogenous in cells; host or cells: SW1573
- studyConditions: 20 hours incubation, immunofluorescence mean nuclear signal, read-out: BRM IF Degradation IC50
Reported DC50 by item:

[
  {
    "compound": "Nc1nnc(-c2ccccc2O)cc1N1CC2CCC(C1)N2c1ccnc(C#CCCN2CCCCCC2)c1 [Compound 222]",
    "testedTarget": "BRM (Homo sapiens, UniProt P51531)",
    "DC50": "< 10 nM"
  }
]

Lab note: next compound to report on.
Prompt: Can you look up DC50 on BRM (Homo sapiens, UniProt P51531) for CCOC1CN(CC#Cc2cc(N3C4CCC3CN(c3cc(-c5ccccc5O)nnc3N)C4)ccn2)C1 [Compound 224] ?
Completion: < 10 nM
